target.or.system: human OX2R (Homo sapiens, UniProt O43614)
Construct: expressed in transfected cells; host or cells: CHO (Chinese hamster ovary) cells, line CHOOX2R, co-expressing NFAT-luciferase
Sequence (O43614 whole entry): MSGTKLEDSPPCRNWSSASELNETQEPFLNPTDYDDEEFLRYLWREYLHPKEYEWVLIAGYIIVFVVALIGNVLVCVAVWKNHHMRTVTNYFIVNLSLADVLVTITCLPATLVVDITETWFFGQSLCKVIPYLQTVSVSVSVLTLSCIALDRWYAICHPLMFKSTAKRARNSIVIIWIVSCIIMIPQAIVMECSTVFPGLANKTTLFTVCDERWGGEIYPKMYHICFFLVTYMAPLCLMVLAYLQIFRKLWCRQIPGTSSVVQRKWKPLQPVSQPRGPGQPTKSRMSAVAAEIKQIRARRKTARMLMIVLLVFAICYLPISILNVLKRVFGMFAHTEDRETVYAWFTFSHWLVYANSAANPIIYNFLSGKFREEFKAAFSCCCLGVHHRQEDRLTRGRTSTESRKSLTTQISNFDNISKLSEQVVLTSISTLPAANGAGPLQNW
experiment.notes: Agonist activity against OX2R: intracellular calcium (Fura-2AM, FDSS7000) in CHOOX2R cells
Format: cell-based
particulars: 10 μM test compound; relative to orexin-A as full agonist (100%)
Category scheme (Response (%) OX2R): class A = under 60%, class B = from 60% up to 80%, class C = 80% and over

State the class of the compound shown: COc1ccc(-c2cccc(C(=O)N(C)C)c2)cc1S(=O)(=O)Nc1cccc(Nc2ccc3c(c2)OCO3)c1 [Example 36] class C

State the class of the compound shown: COc1ccc(-c2cccc(C(=O)N(C)C)c2)cc1S(=O)(=O)Nc1cccc(NC(=O)Nc2ccc(Br)cc2)c1 [Example 42] class C

State the class of the compound shown: COc1ccc(C(=O)Nc2cccc(NS(=O)(=O)c3cc(-c4cccc(C(=O)N(C)C)c4)ccc3OC)c2)cc1 [Example 19] class A

State the class of the compound shown: COc1ccc(-c2cccc(C(=O)N(C)C)c2)cc1S(=O)(=O)Nc1cccc(NC(=O)Nc2cccc(NC(=O)OC(C)(C)C)c2)c1 [Example 62] class A

State the class of the compound shown: COc1ccc(-c2cccc(C(=O)N(C)C)c2)cc1S(=O)(=O)Nc1cccc(NC(=S)Nc2ccccc2)c1 [Example 75] class C

State the class of the compound shown: COc1ccc(-c2cccc(C(=O)N(C)C)c2)cc1S(=O)(=O)Nc1cccc(NC(=O)c2ccncc2)c1 [Example 4] class A

State the class of the compound shown: COc1ccc(-c2cccc(C(=O)N(C)C)c2)cc1S(=O)(=O)Nc1cccc(NC(=O)OC(C)(C)C)c1 [Example 74] class B

State the class of the compound shown: COc1ccc(-c2cccc(C(=O)N(C)C)c2)cc1S(=O)(=O)Nc1cccc(NC(=O)Nc2cccc(N)c2)c1 [Example 63] class B

State the class of the compound shown: COc1ccc(NC(=O)Nc2cccc(NS(=O)(=O)c3cc(-c4cccc(C(=O)N(C)C)c4)ccc3OC)c2)cc1 [Example 53] class C
